All figures here come from patent EP1437348A1.

Test: Ionisation constants by potentiometric titration
Assay type: physicochemical
Settings: water, nacl 0.15m; dans l'eau, NaCl 0,15M; reference molecules entered in the database used for the prediction; read-out: pKa expérimental
Reported pKa values follow for various molecules
Just the number, please, no unit after it.

{"Molecule": "Nc1ncccn1 [2-aminopyrimidine, reference compound]", "pKa": 3.9}

# ---- query molecule ----
pKa reported for this molecule Nc1ccncn1 [4-aminopyrimidine, reference compound] : 6

* * *

Tested on: Candida albicans
Labelling field: enter condition met if recorded MIC is less than 1000 µg/mL. Enter condition not met if it equals or exceeds that cut-off.

Look over these answered cases.
{"Molecule": "Cc1cc(N2CCc3cc(O)c(O)cc3C2)nc(N)n1", "Classification": "condition not met"}
{"Molecule": "Cc1cc(N2CCN(C3CCN(C)CC3)CC2)nc(N)n1", "Classification": "condition not met"}
{"Molecule": "Cc1cc(N2CCN(c3ncccn3)CC2)nc(N)n1", "Classification": "condition met"}
{"Molecule": "COc1cccc(Nc2cc(C)nc(N)n2)c1 [reference compound]", "Classification": "condition not met"}

Req: Bench note: check whether Cc1cc(NC[C@@H]2CCCN2)nc(N)n1 shows MIC below 1000 µg/mL
Resp: condition not met

Req: Bench note: check whether CO[Si](C)(C)CCCCNc1cc(C)nc(N)n1 shows MIC below 1000 µg/mL
Resp: condition met

Req: Bench note: check whether Nc1nc(N2CCCCC2)cc(C(F)(F)F)n1 [Comparatif (DE 19917784), reference compound] shows MIC below 1000 µg/mL
Resp: condition not met

Req: Bench note: check whether Cc1cc(N2CCCCC2)nc(N)n1 shows MIC below 1000 µg/mL
Resp: condition met

Req: Bench note: check whether CCCCCCNc1cc(C)nc(N)n1 shows MIC below 1000 µg/mL
Resp: condition met

* * *

Test: Ionisation constants by potentiometric titration
Format: physicochemical
Details: function NH^+/N (pyrimidine motif); pKa in water, NaCl 0.15M, obtained from the solvent pKa by a polynomial function; read-out: pKa expérimental
Excerpt: Les constantes d'ionisation sont déterminées expérimentalement par titrage potentiométrique suivant les conditions opératoires décrites ci-dessous et évaluées par le logiciel de prédiction ACD/pK DB, Version 5.12. […]
Parameter: pKa
Just the number, please, no unit after it.

{"Compound": "Cc1cc(N2CCCCC2)nc(N)n1 [Composé M]", "Data Value": 8.35}

# ---- query compound ----
pKa reported for this compound CCCCCCNc1cc(C)nc(N)n1 [Composé N] : 8.35

* * *

Reported MIC values follow for various compounds
System: Candida albicans
Use µg/mL as the unit, but write only the number.

{"Compound": "Cc1cc(N2CCN(CCN(C)C)CC2)nc(N)n1 [Composé F]", "MIC, µg/mL": 5000}
{"Compound": "Cc1cc(NCC2CCNCC2)nc(N)n1 [Composé B]", "MIC, µg/mL": 5000}
{"Compound": "Cc1cc(NCc2ccc(C)o2)nc(N)n1 [Composé I]", "MIC, µg/mL": 625}

Entry Cc1cc(NCC2CCCC(CN)C2)nc(N)n1 (stereo not shown) [Composé L] : MIC on Candida albicans = 1250

Entry Cc1cc(NCC(C)(C)N)nc(N)n1 [Composé G] : MIC on Candida albicans = 2500

Entry Cc1cc(NCCN2CCNCC2)nc(N)n1 [Composé H] : MIC on Candida albicans = 2500
